# method.notes: NCI Yeast Anticancer Drug Screen. Data for the mec2-1 strain (AID 157)
# run.parameters: S. cerevisiae mec2-1 strain, at 50.0 µM, hits give high values
Compounds without any hit were thinned out: in the full panel of roughly 79,000, 15% have a hit. The source made the active and inactive calls. Rule as the data show it: active = growth inhibition above about 70%; inactive = the rest.
Would you kindly list growth inhibition for each of these compounds?

Previously resolved entries follow.
CC(C)(C)c1ccc(OS(=O)(=O)c2ccc(Cl)c(Cl)c2)cc1 | 17.4% (inactive)
COc1ccc([N+](=O)[O-])c2c1CONC2c1c(CO)cnc(C)c1O (stereo not given) | -12.2% (inactive)

Give measured growth inhibition for every item shown.
1. Cc1ccc(S(=O)(=O)N/N=C2\CCC3(C)C(=CCC4C3CCC3(C)C(C(C)CCCC(C)C)CCC43)C2(C)C)cc1 (stereo not given)
2. O=C(OCC(OC(=O)c1ccccc1)C(OC(=O)c1ccccc1)C(O)C(O)CO)c1ccccc1 (stereo not given) (tested in a mixture with another compound)
3. CN=C1SC(C)(C)NN1C
4. N#CC(C#N)=C(O)/C(=C/c1ccccc1[N+](=O)[O-])NC(=O)c1ccccc1
5. CCC(C)(C(=O)O)c1ccccc1 (stereo not given)
6. CC(=O)OC1Cc2ccccc2C1OC(C)=O (stereo not given)
7. O=C(O)c1ccc(C(=O)C2CC(C(=O)O)CCC2S(=O)(=O)O)cc1 (stereo not given)

Outgoing:
1: -1.2% (inactive); 2: -4.1% (inactive); 3: 1.85% (inactive); 4: -5.6% (inactive); 5: -5.85% (inactive); 6: 9.4% (inactive); 7: 11.8% (inactive)

Hi team, please reply with growth inhibition for each item in this list.
1. CC(C)[C@@H]1NC(=O)[C@@H]2N=C(O[C@H]2C)[C@H](C(C)C)NC(=O)C2N=C1O[C@H]2C
2. Cn1c(NCCN2CCCCC2)c(C(=O)/C=C/c2ccccc2)c(=O)n(C)c1=O
3. COc1ccc(NC(=O)CC/C(CC(=O)c2ccco2)=N/Nc2ccc([N+](=O)[O-])cc2[N+](=O)[O-])cc1

Outgoing:
1: 4.75% (inactive); 2: 19.4% (inactive); 3: -6.8% (inactive)

Batch request: growth inhibition per item, same order as input.
1. O=C(O)C(Cc1ccccc1)c1ccccc1 (stereo not given)
2. CC1SC2(C(=O)N(CN3CCCCC3)c3ccccc32)N(c2ccccc2)C1=O (stereo not given)
3. CCCC(=O)OCc1ccc(Cl)cc1
4. CCOC(=O)C(NC(=O)c1ccccc1)(C(=O)OCC)c1ccccn1
5. COc1cc(C(C)O)c[n+](CCC2CNc3ccccc32)c1 (stereo not given)
6. CCCCCCSC#N

Outgoing:
["-12.4% (inactive)", "-0.45% (inactive)", "12.8% (inactive)", "-13.5% (inactive)", "-2.2% (inactive)", "13.9% (inactive)"]

State recorded growth inhibition for all listed compounds.
1. O=C1c2ccccc2C(=O)C1(Cl)C(Cl)c1ccc([N+](=O)[O-])cc1 (stereo not given)
2. C/C(=N\NC(=S)N1CCN(c2ncccn2)CC1)c1ccccn1
3. O=[N+]([O-])c1ccc(CCCc2ccc([N+](=O)[O-])cc2)cc1
4. Cc1nn(C(=O)c2ccncc2)c2c1C(c1ccccc1[N+](=O)[O-])SC(N)=N2 (stereo not given)
5. CN1CCC(C[CH2][Sn]([c]2ccccc2)([c]2ccccc2)[c]2ccccc2)CC1
6. CCOC(C)(OCC)c1ccccc1
7. O=c1[nH]nc(-c2ccccc2)c2c1[nH]c1ccccc12

Outgoing:
["98.9% (active)", "-7.1% (inactive)", "7.35% (inactive)", "6.15% (inactive)", "99.3% (active)", "20.6% (inactive)", "-15.7% (inactive)"]

Hi! Can you tell me growth inhibition for each of these compounds?
1. CCC(CC)(Cc1ccccc1)C(=O)O
2. O=[N+]([O-])c1ccc(CS(=O)(=O)O)cc1
3. COc1ccc(/C=N/N=C/c2ccc(OC)cc2)cc1
4. CC(C)(C)C(C(N)=O)C(C)(C)C
5. O=C1C(Cc2ccccc2)CCCC1Cc1ccccc1 (stereo not given)
6. N=C(N)c1cccc(NC(=O)CCc2ccccc2)c1
7. CC(C)(C)CC(C)(C)c1cc2c(O)c(c1)Cc1cc(C(C)(C)CC(C)(C)C)cc(c1O)Cc1cc(C(C)(C)CC(C)(C)C)cc(c1O)Cc1cc(C(C)(C)CC(C)(C)C)cc(c1O)Cc1cc(C(C)(C)CC(C)(C)C)cc(c1O)Cc1cc(C(C)(C)CC(C)(C)C)cc(c1O)C2

Outgoing:
1. -17.7% (inactive)
2. -9.05% (inactive)
3. 0.7% (inactive)
4. 2.6% (inactive)
5. 17.3% (inactive)
6. -14.6% (inactive)
7. 3.05% (inactive)

Consider the following items and state reported growth inhibition for each.
1. CC(=O)CC1CCc2ccc3ccccc3c2C1c1cccc2ccccc12 (stereo not given)
2. O=c1[nH]cnc2ccccc12
3. CCOC(=O)c1nnc(C)[nH]c1=O
4. Nc1nnc2nc(CC(=O)c3ccccc3[N+](=O)[O-])c(CC(=O)c3ccccc3[N+](=O)[O-])nn12

Outgoing:
["8.2% (inactive)", "-1.55% (inactive)", "-5.5% (inactive)", "6.05% (inactive)"]

Each compound below has a recorded value; state its growth inhibition.
1. CCCCCCCCCCCCCCCCN(O)C(=O)c1cnc[nH]1
2. CC(O)(COS(=O)(=O)c1ccccc1)c1ccccc1 (stereo not given)
3. O=C(c1ccccc1)C1(c2ccccc2)CCCCC1
4. CCCCCCCC(=O)OCC1OC(n2cc(F)c(=O)[nH]c2=O)C(NC(=O)OCc2ccccc2)C(OC(=O)CCCCCCC)C1O (stereo not given)
5. Nc1nc(N)c(N)c(Nc2ccc(Cl)cc2)n1
6. O=CNCC(=O)Nc1ccccc1

Outgoing:
26.6% (inactive)
0.7% (inactive)
15.6% (inactive)
4.05% (inactive)
22.3% (inactive)
-2.45% (inactive)

Parameter requested: growth inhibition. Apply to each item below.
1. COc1ccc(C2CC(=O)Oc3ccccc3O2)cc1 (stereo not given)
2. Cc1nc2c(=O)n3c4c(cccc4c2o1)CCC3
3. O=[N+]([O-])c1ccc(-c2ccncc2)cc1

Outgoing:
["16.4% (inactive)", "10.4% (inactive)", "-31.9% (inactive)"]
